So I've got a bunch of compounds here, and I need their cell viability values.
Tested on: SW480
test_details: cell viability (CellTiter-Glo) relative to plate median (fraction of plate median); higher = more viable cells
test_context: 5 µM; treatment time 24 h; reporter: 7TFP
Please reply with the value in numeric form only.

Q: What cell viability value was documented for this compound, CC(C)=CCc1c2c(c(O)c3c(=O)c(O)c(-c4ccccc4)oc13)C=CC(C)(C)O2 ?
Result: 1.02

Q: Likewise for Cc1cnc(NC(=O)C2=C(O)c3ccccc3S(=O)(=O)N2C)s1 ?
Result: 0.995

Q: Likewise for COC(=O)C[C@H]1C(C)(C)C(=O)[C@@H]2CC3C4=CC(=O)O[C@@H](c5ccoc5)[C@]4(C)CC[C@@H]3[C@@]1(C)C2=O (some centres undefined) ?
Result: 0.957

Q: Likewise for Cc1cc(O)cc(=O)o1 ?
Result: 1.04

Q: Likewise for COc1cccc2c(C)cc(=O)[nH]c12 ?
Result: 1.02

Q: Likewise for CC[C@@H](C)c1cc(=O)c2c(CO)cc3c(c2o1)C(=O)c1c(O)cccc1C3=O ?
Result: 1.05

Q: Likewise for NCC[C@H](O)C(=O)N[C@@H]1C[C@H](N)[C@@H](O[C@H]2O[C@H](CN)[C@@H](O)[C@H](O)[C@H]2O)[C@H](O)[C@H]1O[C@H]1O[C@H](CO)[C@@H](O)[C@H](N)[C@H]1O ?
Result: 0.995

Q: Likewise for CCCc1nc(C)c2c(O)nc(-c3cc(S(=O)(=O)N4CCN(CC)CC4)ccc3OCC)nn12 ?
Result: 0.951

Q: Likewise for COc1c(N2C[C@@H]3CCCN[C@@H]3C2)c(F)cc2c(=O)c(C(=O)O)cn(C3CC3)c12 ?
Result: 1.02

* * *

Test system: HCT116
test_details: cell viability (CellTiter-Glo) relative to plate median (fraction of plate median); higher = more viable cells
test_context: 5 µM; treatment time 24 h; reporter: TCF4/Wnt
Rule: cell viability below 1 gives rule met. Equal to or above 1 gives rule not met.

Q: Is 1 strictly greater than the molecule's reported cell viability? molecule: CC(=O)O[C@@H]1CC2C(C)(C)[C@H](O)C=C[C@]2(C)C2CC[C@@]3(C)[C@H](c4ccoc4)OC(=O)C4OC43[C@@]21C (stereo not given in full)
Result: rule not met

Q: Likewise for CC(=O)OCC(=O)[C@@]1(O)[C@@H](C)C[C@H]2[C@@H]3CCC4=CC(=O)C=C[C@]4(C)[C@@]3(F)[C@@H](O)C[C@@]21C ?
Result: rule not met

Q: Likewise for CC(=O)O[C@]1(C)CC[C@@]23C[C@H]1C(C)(C)[C@@H]2CC[C@H]3C ?
Result: rule met

Q: Likewise for CNS(=O)(=O)c1ccc(NC(=O)c2ccccc2C(=O)O)cc1 ?
Result: rule not met

Q: Likewise for C[C@H](CCC(=O)O)[C@H]1CC[C@H]2[C@@H]3CC[C@@H]4C[C@H](O)CC[C@]4(C)[C@H]3C[C@H](O)[C@]12C ?
Result: rule not met

Q: Likewise for OC(CCN1CCCCC1)(c1ccccc1)C1CCCCC1 (stereo not given) ?
Result: rule met

Q: Likewise for COc1cc2c(cc1OC)C(=O)OC2 ?
Result: rule not met

Q: Likewise for COC(=O)[C@]1(C)CCC[C@]2(C)c3ccc(C(C)C)cc3C(=O)CC12 (stereo not given in full) ?
Result: rule not met

Q: Likewise for Cc1c(C)c2c(c(C)c1O)CCC(C)(COc1ccc(CC3SC(=O)NC3=O)cc1)O2 (stereo not given) ?
Result: rule not met

Q: Likewise for CC12CC3CC(C)(C1)CC(N)(C3)C2 ?
Result: rule not met

Q: Likewise for CC(C)=CC1C(CO)C1(C)C (stereo not given) ?
Result: rule met

Q: Likewise for O=C(O)c1ccccc1Nc1ccccc1 ?
Result: rule not met

Q: Likewise for CCN(CC)Cc1cc(Nc2ccnc3cc(Cl)ccc23)ccc1O ?
Result: rule met

Q: Likewise for CC(C)(O)CC[C@@H](O)[C@](C)(O)[C@H]1CC[C@@]2(O)C3=CC(=O)[C@@H]4C[C@@H](O)[C@@H](O)C[C@]4(C)[C@H]3CC[C@]12C ?
Result: rule not met

Q: Likewise for C[C@H](CCC(=O)O)[C@H]1CC[C@H]2[C@@H]3CC[C@@H]4CCCC[C@]4(C)[C@H]3CC[C@]12C ?
Result: rule not met

Q: Likewise for CC(=O)OC(C)C[N+](C)(C)C (stereo not given) ?
Result: rule not met

Q: Likewise for CC(=O)NCCCS(=O)(=O)O ?
Result: rule not met

Q: Likewise for CN[C@H]1CC[C@@H](c2ccc(Cl)c(Cl)c2)c2ccccc21 ?
Result: rule met

Q: Likewise for CC(=O)O[C@H]1C[C@@H](OC(C)=O)C(C)(C)[C@@H]2C[C@@H](OC(C)=O)[C@@]3(C)C4=CC(=O)O[C@@H](c5ccoc5)[C@]4(C)CC[C@@H]3[C@@]12C ?
Result: rule not met

Q: Likewise for C[C@H]1[C@H]2CC[C@H]3[C@@H]4CC=C5C[C@@H](N(C)C)CC[C@]5(C)[C@H]4CC[C@]23CN1C ?
Result: rule met

Q: Likewise for CC1=C(CC(=O)O)c2cc(F)ccc2/C1=C\c1ccc([S+](C)[O-])cc1 (stereo not given) ?
Result: rule met

Q: Likewise for COc1ccc(-c2cc(=O)c3c(OC)c(OC)c(OC)c(OC)c3o2)cc1 ?
Result: rule met

Q: Likewise for C[C@@H]1C[C@H]2[C@@H]3CCC4=CC(=O)C=C[C@]4(C)[C@@]3(F)[C@@H](O)C[C@]2(C)[C@@]1(O)C(=O)CO ?
Result: rule not met

Q: Likewise for CCCC(=O)Nc1ccc(OCC(O)CNC(C)C)c(C(C)=O)c1 (stereo not given) ?
Result: rule met

Q: Likewise for CCN(CC)CCNC(=O)COc1ccc(OC)cc1 ?
Result: rule met

Q: Likewise for C=C1c2cccc(O)c2C(=O)C2=C(O)[C@]3(O)C(=O)C(C(N)=O)=C(O)[C@@H](N(C)C)[C@@H]3[C@@H](O)[C@H]12 ?
Result: rule met

Q: Likewise for CN1CC(=O)N2[C@H](c3ccc4c(c3)OCO4)c3[nH]c4ccccc4c3C[C@@H]2C1=O ?
Result: rule not met

Q: Likewise for NCCC(=O)c1ccccc1N ?
Result: rule not met

Q: Likewise for COc1cc(O)ccc1C(C)=O ?
Result: rule met

* * *

System: SW480
test_details: cell viability (CellTiter-Glo) relative to plate median (fraction of plate median); higher = more viable cells
test_context: 5 µM; treatment time 24 h; reporter: 7TFP
So I've got a bunch of molecules here, and I need their cell viability values.
Please reply with the value in numeric form only.

Q: What cell viability value was documented for this molecule, Clc1ccc(COC(Cn2ccnc2)c2ccc(Cl)cc2Cl)c(Cl)c1 (stereo unspecified) ?
Result: 0.973

Q: Likewise for COc1cc(C)c(C(=O)O)c(O)c1 ?
Result: 1

Q: Likewise for CC(C)=CCc1c(O)cc(C)oc1=O ?
Result: 1.05

Q: Likewise for Cc1ncc(CO)c(CO)c1O ?
Result: 1.02

Q: Likewise for CC(C)=CCc1cccc2c(C[C@@H]3NC(=O)[C@H](C)NC3=O)c[nH]c12 ?
Result: 0.981

Q: Likewise for Cc1ccc(S(=O)(=O)NC(=O)NN2CC3CCCC3C2)cc1 (stereo unspecified) ?
Result: 0.974

* * *

System: SW480
test_details: cell viability (CellTiter-Glo) relative to plate median (fraction of plate median); higher = more viable cells
test_context: 5 µM; treatment time 24 h; reporter: 7TFP
So I've got a bunch of molecules here, and I need their cell viability values.

Q: What cell viability value was documented for this molecule, O=C(O)/C=C/c1ccc(O)c(O)c1 ?
Result: 1.03

Q: Likewise for CC(=O)O[C@@H]1CO[C@H]2O[C@H]3[C@@H](C(C=O)=C[C@H](O)[C@@H]4C5=C(C(C)C)CC[C@]5(C)CC[C@@]34C)[C@@]2(O)C1=O [Striatal B] ?
Result: 1.05

Q: Likewise for CC(=O)O[C@H]1CC[C@]2(C)C3=CC(=O)[C@@]4(C)C(C[C@@H]5OC6(OCC(C)CC6Br)[C@@H](C)[C@@H]54)C3CC[C@H]2C1 (stereo partly drawn) [3beta-ACETOXY-23-BROMO-ISOALLOSPIROST-9 (11)-ENE-12-ONE] ?
Result: 1.03

Q: Likewise for O=C(OCc1ccccc1)c1ccccc1 ?
Result: 0.928

* * *

Tested on: SW480
test_details: TCF/Wnt firefly luciferase reporter signal relative to plate median (fraction of plate median); higher = higher Wnt reporter signal
test_context: 10 µM; treatment time 24 h; reporter: 7TFP
Where a name gives a salt, the structure may show the parent alone.
measured_endpoint: TCF/Wnt firefly luciferase reporter signal
Please reply with the value in numeric form only.

Q: Find the measured TCF/Wnt firefly luciferase reporter signal: item Cc1ncc(-c2ccnc(Nc3ccc(S(C)(=O)=O)cc3)n2)n1C(C)C , target or system SW480.
Result: 0.793

Q: Likewise for CNC(=O)c1cc(COc2nnc(Nc3ccc(Cl)cc3)c3ccoc23)ccn1 [Telatinib (BAY 57-9352)] ?
Result: 1.08

Q: Likewise for CN(C)C/C=C/C(=O)Nc1cc2c(Nc3ccc(F)c(Cl)c3)ncnc2cc1O[C@H]1CCOC1 [Afatinib (BIBW2992)] ?
Result: 0.447

Q: Likewise for Cc1nc(N)sc1-c1ccnc(Nc2ccc(N3CCOCC3)cc2)n1 ?
Result: 0.774

Q: Likewise for C[C@@H](N)[C@H]1CC[C@H](C(=O)Nc2ccncc2)CC1 ?
Result: 1.18

Q: Likewise for Cc1[nH]c(/C=C2\C(=O)Nc3ccccc32)c(C)c1CCC(=O)O ?
Result: 1.22

Q: Likewise for CCn1c(-c2nonc2N)nc2c(C#CC(C)(C)O)ncc(OC[C@H]3CCCNC3)c21 ?
Result: 1.39

Q: Likewise for O=C(NCCCNc1nc(Nc2cccc(NC(=O)N3CCCC3)c2)ncc1I)c1cccs1 ?
Result: 1.06

Q: Likewise for CN1CCN(c2cccc(Nc3nc4c(-c5ccc(S(C)(=O)=O)cc5)cccn4n3)c2)CC1 ?
Result: 1.34

Q: Likewise for CC(C)(C)c1cc(/C=C(\C#N)C(N)=S)cc(C(C)(C)C)c1O [Tyrphostin AG 879 (AG 879)] ?
Result: 0.878

Q: Likewise for COc1cc(Nc2ncc(F)c(Nc3ccc4c(n3)N(COP(=O)(O)O)C(=O)C(C)(C)O4)n2)cc(OC)c1OC ?
Result: 0.588

Q: Likewise for CN(C)c1ccc(-c2nc3ncc(Cl)c(N4CCN(CC(=O)Nc5nccs5)CC4)c3[nH]2)cc1 ?
Result: 1.16

Q: Likewise for Cn1cnc(N)c2ncnc1-2 [3-Methyladenine] ?
Result: 0.733

Q: Likewise for C[C@@H]1CN(CC(=O)Nc2ccc3c(c2)Cc2cccc(-c4cc(=O)cc(N5CCOCC5)o4)c2S3)C[C@H](C)O1 ?
Result: 1.23

Q: Likewise for CC[C@H](Nc1ncnc2[nH]cnc12)c1nc2cccc(F)c2c(=O)n1-c1ccccc1 ?
Result: 0.751

Q: Likewise for O=c1sn(-c2cccc3ccccc23)c(=O)n1Cc1ccccc1 [Tideglusib] ?
Result: 1.11

Q: Likewise for Cc1ccc(Nc2nccc(N(C)c3ccc4c(C)n(C)nc4c3)n2)cc1S(N)(=O)=O [Pazopanib HCl] ?
Result: 0.931

Q: Likewise for C[C@@H](Oc1cc(-n2cnc3ccc(CN4CCN(C)CC4)cc32)sc1C(N)=O)c1ccccc1C(F)(F)F ?
Result: 0.941
